Ref: paper PMC9814838

target: NBRE: Nurr1 monomer (Homo sapiens, UniProt P43354); construct: the activity of full-length human Nurr1 in cellular settings; assay: Full-length Nurr1 reporter gene assay on NBRE response element; details: full-length human Nurr1; HEK293T; mean ± SD
Sequence (P43354 whole entry): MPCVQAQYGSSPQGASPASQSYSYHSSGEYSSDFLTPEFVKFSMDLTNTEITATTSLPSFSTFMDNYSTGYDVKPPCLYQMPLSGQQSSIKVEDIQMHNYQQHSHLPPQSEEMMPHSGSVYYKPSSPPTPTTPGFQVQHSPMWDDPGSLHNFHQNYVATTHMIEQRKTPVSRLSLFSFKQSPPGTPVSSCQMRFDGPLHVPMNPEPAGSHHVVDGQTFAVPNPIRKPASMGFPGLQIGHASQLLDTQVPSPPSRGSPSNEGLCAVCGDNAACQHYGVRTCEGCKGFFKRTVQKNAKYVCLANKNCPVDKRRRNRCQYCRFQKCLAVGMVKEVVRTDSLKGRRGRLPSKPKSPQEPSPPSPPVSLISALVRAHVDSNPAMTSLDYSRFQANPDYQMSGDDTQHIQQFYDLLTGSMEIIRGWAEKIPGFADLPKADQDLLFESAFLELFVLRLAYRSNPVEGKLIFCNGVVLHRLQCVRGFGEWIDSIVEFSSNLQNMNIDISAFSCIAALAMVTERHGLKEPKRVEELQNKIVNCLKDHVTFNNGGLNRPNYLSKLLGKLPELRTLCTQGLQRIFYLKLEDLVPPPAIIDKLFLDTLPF
ENDPOINT LABEL: IC50 (µM)
Numbers only, in µM.

Problem: I have this molecule here, CCC(=O)NS(=O)(=O)c1ccc(-c2c(-c3ccccc3)noc2C)cc1 , and I need its recorded IC50.
Solution: 15

----------
molecular target: NOR1 (Homo sapiens); construct: NOR1 (isoform alpha; uniprot entry: hNOR1–Q92570-1, residues 393–626); expressed in transfected cells; host or cells: HEK293T; assay: Gal4-NOR1 hybrid reporter gene assay in HEK293T cells; assay type: cell-based; conditions: 30 µM; primary screen; n ≥ 2; ^# not significant vs VP16 control
Sequence (Q92570 393-626): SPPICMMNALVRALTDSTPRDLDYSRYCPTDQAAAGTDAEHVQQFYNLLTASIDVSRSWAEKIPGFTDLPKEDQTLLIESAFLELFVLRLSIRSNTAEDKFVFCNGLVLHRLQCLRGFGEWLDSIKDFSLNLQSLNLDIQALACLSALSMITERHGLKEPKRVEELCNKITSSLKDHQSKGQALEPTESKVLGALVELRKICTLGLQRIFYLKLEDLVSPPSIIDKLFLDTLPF
ENDPOINT LABEL: Nor1 activity 30μM (mean fold activation) (fold)
Numbers only, in fold.

Reference set, count: 6
>  <COMPOUND>
CS(=O)(=O)Nc1ccc([N+](=O)[O-])cc1Oc1ccccc1 [nimesulid]

>  <REPORTED>
0.84

$$$$
>  <COMPOUND>
CC(C)Cc1ccc(C(C)C(=O)O)cc1 (stereo not shown) [ibuprofen]

>  <REPORTED>
0.96

$$$$
>  <COMPOUND>
O=C(O)COC(=O)Cc1ccccc1Nc1c(Cl)cccc1Cl [aceclofenac]

>  <REPORTED>
0.49

$$$$
>  <COMPOUND>
COc1ccc2cc([C@H](C)C(=O)O)ccc2c1 [naproxen]

>  <REPORTED>
1.09

$$$$
>  <COMPOUND>
Nc1c(CC(=O)O)cccc1C(=O)c1ccc(Br)cc1 [bromfenac]

>  <REPORTED>
1.09

$$$$
>  <COMPOUND>
CN1C(C(=O)Nc2ccccn2)=C(O)c2ccccc2S1(=O)=O [piroxicam]

>  <REPORTED>
1.01

$$$$

Would you mind listing Nor1 activity 30μM (mean fold activation) for each of the following compounds?
1. CC(C(=O)O)c1cccc(Oc2ccccc2)c1 (stereo not shown) [fenoprofen]
2. CCc1cccc2c3c([nH]c12)C(CC)(CC(=O)O)OCC3 (stereo not shown) [etodolac]

Solution:
0.81
0.91
